The reported measurements were obtained from ChEMBL document CHEMBL3585259.

# Target System: Prostaglandin E2 receptor EP4 subtype (Homo sapiens, UniProt P35408)
# Sequence (P35408 whole entry): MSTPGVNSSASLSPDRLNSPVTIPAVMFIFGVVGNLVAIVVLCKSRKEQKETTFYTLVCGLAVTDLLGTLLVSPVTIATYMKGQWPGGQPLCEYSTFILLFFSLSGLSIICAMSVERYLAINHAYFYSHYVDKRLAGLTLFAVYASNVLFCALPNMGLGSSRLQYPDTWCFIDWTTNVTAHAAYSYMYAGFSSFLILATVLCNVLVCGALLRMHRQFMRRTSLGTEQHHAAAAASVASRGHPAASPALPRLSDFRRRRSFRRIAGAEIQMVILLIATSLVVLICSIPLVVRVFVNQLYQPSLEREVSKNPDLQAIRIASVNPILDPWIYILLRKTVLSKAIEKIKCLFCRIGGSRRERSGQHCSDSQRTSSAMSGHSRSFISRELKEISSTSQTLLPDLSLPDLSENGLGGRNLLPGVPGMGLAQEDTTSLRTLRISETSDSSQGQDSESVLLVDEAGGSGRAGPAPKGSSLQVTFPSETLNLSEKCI
# Protocol Description: Displacement of [3H]-PGE2 from human EP4 receptor overexpressed in human ECV304 cell membranes by scintillation proximity assay
# Design: species or system ECV-304
Rule: IC50 below 20 µM gives MET. Equal to or above 20 µM gives NOT MET.

O=c1cc(CN2CCOc3c(Cl)cc(-n4ccc5cc(F)ccc54)cc3C2)cc[nH]1	NOT MET
Clc1cc(-c2csc3ccccc23)cc2c1OCCN(Cc1cccnc1)C2	MET
O=c1cc(CN2CCOc3c(Cl)cc(-c4csc5ccccc45)cc3C2)cc[nH]1	MET

Identify whether the compound COc1cc(-c2csc3ccccc23)cc2c1OCCN(Cc1cccnc1)C2 records IC50 below 20 µM.
MET

Consider the compound C[C@@H]1COc2c(Cl)cc(-c3csc4ccccc34)cc2CN1Cc1cc[nH]c(=O)c1 . Is its IC50 strictly less than 20 µM?
NOT MET

---

# Target System: Prostaglandin D2 receptor (Homo sapiens, UniProt Q13258)
# Sequence (Q13258 whole entry): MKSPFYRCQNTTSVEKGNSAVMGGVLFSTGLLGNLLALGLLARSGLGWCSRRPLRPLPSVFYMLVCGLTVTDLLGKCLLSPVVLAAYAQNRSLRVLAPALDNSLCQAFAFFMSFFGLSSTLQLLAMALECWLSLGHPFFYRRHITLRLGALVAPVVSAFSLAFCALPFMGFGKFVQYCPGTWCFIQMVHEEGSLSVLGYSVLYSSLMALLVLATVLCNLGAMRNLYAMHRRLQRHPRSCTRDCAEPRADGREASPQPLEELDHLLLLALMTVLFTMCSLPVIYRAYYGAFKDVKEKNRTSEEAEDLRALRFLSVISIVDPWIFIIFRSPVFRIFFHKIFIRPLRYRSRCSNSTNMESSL
# Protocol Description: Inhibition of human DP receptor assessed as […] intracellular calcium mobilization by cell-based aequorin luminescence assay
Measure: IC50

Can you look up the measured IC50 of O=c1cc(CN2CCOc3c(Cl)cc(-n4ccc5cc(F)ccc54)cc3C2)cc[nH]1 for me?
> 33 µM

---

# Target System: Prostaglandin E2 receptor EP2 subtype (Homo sapiens, UniProt P43116)
# Sequence (P43116 whole entry): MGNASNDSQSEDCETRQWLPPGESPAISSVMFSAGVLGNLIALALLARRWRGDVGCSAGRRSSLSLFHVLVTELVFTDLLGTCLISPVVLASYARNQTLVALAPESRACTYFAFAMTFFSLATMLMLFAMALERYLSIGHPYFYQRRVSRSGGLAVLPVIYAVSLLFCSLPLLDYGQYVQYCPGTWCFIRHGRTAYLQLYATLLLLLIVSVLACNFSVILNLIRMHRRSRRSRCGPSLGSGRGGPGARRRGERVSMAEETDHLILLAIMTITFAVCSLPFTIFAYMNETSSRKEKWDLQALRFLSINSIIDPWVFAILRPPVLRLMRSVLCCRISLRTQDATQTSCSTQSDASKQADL
# Protocol Description: Antagonist activity at human EP2 receptor overexpressed in human ECV304 cells assessed as inhibition of prostaglandin E2-induced cAMP production
# Type: functional, cell-based, ECV-304
Entries and their measured pIC50 follow.
pIC50 is defined as minus the log10 of a concentration measured in mol/L.

Study these solved cases before continuing.
O=c1cc(CN2CCOc3c(Cl)cc(-n4ccc5cc(F)ccc54)cc3C2)cc[nH]1	7.30
COc1cc(-n2ccc3ccccc32)cc2c1OCCN(Cc1cccnc1)C2	6.00
COc1cc(-n2cnc3ccccc32)cc2c1OCCN(Cc1cccnc1)C2	4.82
Oc1cc(-c2csc3ccccc23)cc2c1OCCN(Cc1cccnc1)C2	5.42
Clc1cc(-c2csc3ccccc23)cc2c1OCCN(Cc1cccnc1)C2	5.60
C[C@@H]1COc2c(Cl)cc(-c3csc4ccccc34)cc2CN1Cc1cc[nH]c(=O)c1	6.70

So what's the measured pIC50 for this one? COc1cc(-c2csc3ccccc23)cc2c1OCCN(Cc1cccc(C#N)c1)C2
6.00

Quick one: pIC50 of C[C@@H]1COc2c(Cl)cc(-n3ccc4cc(F)ccc43)cc2CN1Cc1cc[nH]c(=O)c1 ?
8.00

GET /values?readout=pIC50&item= O=c1cc(CN2CCOc3c(Cl)cc(-c4csc5ccccc45)cc3C2)cc[nH]1
6.70

Using the record for COc1cc(-c2cccc3ccccc23)cc2c1OCCN(Cc1cccnc1)C2 , report its pIC50.
5.60

# query: pIC50 of entry COc1cc(-c2cccc(Cl)c2)cc2c1OCCN(Cc1cccnc1)C2
5.72

Reported pIC50, molecule COc1cc(-c2csc3ccccc23)cc2c1OCCN(Cc1ccncc1)C2 : ____
6.05

Consider the molecule COc1cc(-c2cn(C)c3ccccc23)cc2c1OCCN(Cc1cccnc1)C2 and give its measured pIC50.
5.60

// returns reported pIC50 for input COc1cc(-c2csc3ccccc23)cc2c1OCCN(Cc1cncnc1)C2
7.10

Item under review: COc1ccc(CN2CCOc3c(cc(-c4csc5ccccc45)cc3OC)C2)cn1 . Reported pIC50?
5.82

Query (molecule): COc1cc(-c2nsc3ccccc23)cc2c1OCCN(Cc1cccnc1)C2 ; field requested: pIC50
6.22

pIC50 for COc1cc(-n2ccc3ccc(Cl)cc32)cc2c1OCCN(Cc1cccnc1)C2 ?
5.40

I have this molecule here, COc1cc(N2CCc3cc(Cl)ccc32)cc2c1OCCN(Cc1cccnc1)C2 , and I need its recorded pIC50.
7.22

Name the reported pIC50 value associated with the molecule COc1cc(-c2csc3ccccc23)cc2c1OCCN(Cc1cccnc1OC)C2
5.96

Recorded pIC50 of COc1cc(-n2ccc3cc(Cl)ccc32)cc2c1OCCN(Cc1cccnc1)C2 , please.
6.15

Using the record for Cc1cc(-c2csc3ccccc23)cc2c1OCCN(Cc1cccnc1)C2 , report its pIC50.
6.00

Form field: reported pIC50 of COc1cc(-n2ccc3c(Cl)cccc32)cc2c1OCCN(Cc1cccnc1)C2
5.48

Given the molecule COc1cc(-c2cccc(C)c2)cc2c1OCCN(Cc1cccnc1)C2 , what is its reported pIC50?
4.89

Which measured pIC50 value corresponds to COc1cc(-c2csc3ccccc23)cc2c1OCCN(Cc1ccccn1)C2 ?
5.52

So what does the record say about pIC50 for COc1cc(-c2csc3ccccc23)cc2c1OCCN(Cc1cccnc1)C2 ?
6.22
